Where do the numbers come from? From the Human Domainome abundance scans (Beltran et al. 2025).

B1: Connector enhancer of kinase suppressor of ras 2, residues 9 to 71; numbered along this chain, Q8WXI2 (parent)
chain: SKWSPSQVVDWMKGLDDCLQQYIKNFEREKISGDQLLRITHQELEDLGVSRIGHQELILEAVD

- Variants of: B1
- procedure-details: abundance fitness (aPCA) (normalised: wild type 0, dead -1); higher = more abundant; growth selection in yeast, the domain comes from the species named
- condition-summary: Homo sapiens
Please go through the items and note down their abundance fitness.

Q: Value lookup for abundance fitness; key = L59M
A: -0.032

Q: Same read-out for L44W ?
A: -0.964

Q: Same read-out for R28E ?
A: -0.1

Q: Same read-out for L36R ?
A: -0.82

Q: Same read-out for R28F ?
A: -0.453

Q: Same read-out for K30W ?
A: -0.572

Q: Same read-out for Q21M ?
A: -0.102

Q: Same read-out for S50C ?
A: -0.068

Q: Same read-out for E45T ?
A: -0.034

Q: Same read-out for S50D ?
A: -0.172

Q: Same read-out for Q21E ?
A: -0.076

Q: Same read-out for E56G ?
A: -0.307

Q: Same read-out for H41N ?
A: -0.097

Q: Same read-out for L57A ?
A: -0.105

Q: Same read-out for S50R ?
A: -0.05

Q: Same read-out for S32C ?
A: -0.029

Q: Same read-out for Q42K ?
A: 0.002

Q: Same read-out for K30T ?
A: -0.419

Q: Same read-out for L57Y ?
A: -0.53

Q: Same read-out for D46R ?
A: 0.027

Q: Same read-out for Q42A ?
A: -0.083

Q: Same read-out for L15D ?
A: -0.702

Q: Same read-out for Q35R ?
A: 0.033

Q: Same read-out for D63F ?
A: -0.233

Q: Same read-out for D34E ?
A: 0.055

Q: Same read-out for L37K ?
A: -0.132

Q: Same read-out for L44M ?
A: -0.399

Q: Same read-out for D46F ?
A: -0.097

Q: Same read-out for L37V ?
A: -0.078

Q: Same read-out for L37H ?
A: -0.158

Q: Same read-out for D17G ?
A: -0.104

Q: Same read-out for N25Y ?
A: -0.036

Q: Same read-out for F26G ?
A: -0.727

Q: Same read-out for D63P ?
A: -0.792

Q: Same read-out for L47N ?
A: -0.783

Q: Same read-out for E45R ?
A: -0.017

Q: Same read-out for G33T ?
A: -0.645

Q: Same read-out for H54W ?
A: -1.27

Q: Same read-out for Y22G ?
A: -0.702

Q: Same read-out for D17V ?
A: -0.359

Q: Same read-out for I23Y ?
A: -0.447

Q: Same read-out for G48K ?
A: -0.552

Q: Same read-out for S32E ?
A: -0.341

Q: Same read-out for K13T ?
A: -0.237

Q: Same read-out for L36M ?
A: -0.334

Q: Same read-out for G14A ?
A: -0.41
